B1: KLHL14 (parent)
chain: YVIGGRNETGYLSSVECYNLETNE

Variants of: B1
Assay: protein stability index of a GFP-peptide fusion (GPS, HEK-293T) (PSI 1-6); higher = more stable;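 also: lentivirally expressed fusions sorted by FACS into six bins by GFP to DsRed ratio, PSI derived from sequencing read proportions per bin multiplied by bin number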
Conditions: c terminus: a fixed tail appended
Overview of reported protein stability index across a group of variants:
Write the number on its own, no unit after it.

[
  {
    "Biosequence": "YVIGGRNEDGYLSSVECYNLETNE",
    "protein stability index": 2.23
  }
]

# query: protein stability index of entry "YVIGGRNNTGYLSSVECYNLETNE" 1.8

# query: protein stability index of entry "YVIGHRNETGYLSSVECYNLETNE" 1.74

# query: protein stability index of entry "YVIGGRNETGYLSSDECYNLETNE" 2.95

# query: protein stability index of entry "YVIGGRNVTGYLSSVECYNLETNE" 1.78

# query: protein stability index of entry "YVIGGRNETGVLSSVECYNLETNE" 2.52

# query: protein stability index of entry "YVIGGRNETGYLSFVECYNLETNE" 1.47

# query: protein stability index of entry "YVIGGRNETGYLSSVECYNLEWNE" 1.53

# query: protein stability index of entry "YVIGGRNETGYLSSVECCNLETNE" 1.71

# query: protein stability index of entry "TVIGGRNETGYLSSVECYNLETNE" 4.71

# query: protein stability index of entry "YVIGGRNETGYLDSVECYNLETNE" 2.76

# query: protein stability index of entry "YVIGGRNETGYTSSVECYNLETNE" 2.57

# query: protein stability index of entry "YVIGGRNETGYRSSVECYNLETNE" 3.28

# query: protein stability index of entry "YVIGGHNETGYLSSVECYNLETNE" 1.9

# query: protein stability index of entry "MVIGGRNETGYLSSVECYNLETNE" 3.55

# query: protein stability index of entry "YVIGGRNETGELSSVECYNLETNE" 3.9

# query: protein stability index of entry "YVIGGRNETGYLSSVECYNLERNE" 2.62

# query: protein stability index of entry "YVIGGRNETGYLSSVECYLLETNE" 2.08

# query: protein stability index of entry "YVIGTRNETGYLSSVECYNLETNE" 2.33

# query: protein stability index of entry "YVIGGRNETGYLSSVEMYNLETNE" 1.78

# query: protein stability index of entry "IVIGGRNETGYLSSVECYNLETNE" 2.06
